Test system: Myzus persicae (Green Peach Aphid)
experimental protocol: Myzus persicae systemic activity, roots of pea seedlings in test solution
Assay type: in vivo
measurement parameters: 144 h, test rate of 24 ppm, 6 days after placing seedlings into test solutions

{"columns": ["molecule", "mortality at 24 ppm"],
 "data": [
  ["Cc1ccccc1NC(=O)[C@H]1[C@@H]2OCCO[C@@H]21", "≥ 80%"],
  ["Cn1cc(NC(=O)[C@H]2[C@@H]3OCCO[C@@H]32)cn1", "≥ 80%"],
  ["O=C(O)[C@H]1[C@@H]2OCCO[C@@H]21", "≥ 80%"],
  ["O=C(NOC1CCC1)[C@H]1[C@@H]2OCCO[C@@H]21", "≥ 80%"],
  ["Cc1ccc(NC(=O)[C@H]2[C@@H]3OCCO[C@@H]32)cc1", "≥ 80%"],
  ["CCONC(=O)[C@H]1[C@@H]2OCCO[C@@H]21", "≥ 80%"],
  ["CCOC(=O)[C@H]1[C@@H]2OCCO[C@@H]21", "≥ 80%"],
  ["CNC(=O)c1ccccc1NC(=O)[C@H]1[C@@H]2OCCO[C@@H]21", "≥ 80%"],
  ["O=C(NOCc1c(F)cccc1F)[C@H]1[C@@H]2OCCO[C@@H]21", "≥ 80%"],
  ["O=C(NOCc1ccccc1)[C@H]1[C@@H]2OCCO[C@@H]21", "≥ 80%"],
  ["NC(=O)[C@H]1[C@@H]2OCCO[C@@H]21", "≥ 80%"],
  ["Cn1ccc(NC(=O)[C@H]2[C@@H]3OCCO[C@@H]32)n1", "≥ 80%"],
  ["O=C(NC1CCOCC1)[C@H]1[C@@H]2OCCO[C@@H]21", "≥ 80%"]
]}

Hey, just so you know, these numbers are from patent US20260271927A1.
